target: β2 receptor (Homo sapiens); construct: endogenous in cells; host or cells: H292 cells; assay: β2 mediated cAMP production in H292 cells, AlphaScreen cAMP detection (10 minutes with test compound); format: cell-based; conditions: fraction relative to the maximum activity determined for formoterol, 10 minutes incubation
Sequence (P07550 whole entry): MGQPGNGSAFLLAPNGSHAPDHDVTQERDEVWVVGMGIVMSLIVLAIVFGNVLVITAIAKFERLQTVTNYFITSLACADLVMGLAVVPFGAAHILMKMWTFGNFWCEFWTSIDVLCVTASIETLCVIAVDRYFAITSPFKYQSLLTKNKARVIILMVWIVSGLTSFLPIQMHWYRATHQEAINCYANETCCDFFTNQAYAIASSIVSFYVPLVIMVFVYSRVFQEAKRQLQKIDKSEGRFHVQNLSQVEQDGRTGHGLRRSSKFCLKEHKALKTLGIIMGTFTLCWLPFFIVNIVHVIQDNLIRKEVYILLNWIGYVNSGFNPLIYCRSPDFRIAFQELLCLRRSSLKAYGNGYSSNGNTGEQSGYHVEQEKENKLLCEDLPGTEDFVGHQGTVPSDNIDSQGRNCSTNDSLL
Structures can show the parent of a compound that is named as a salt.
Overview of recorded Intrinsic Activity for various molecules
// return just the number, without any unit appended

O=C(CCOCCc1ccccc1)N(CCNC[C@H](O)c1ccc(O)c2[nH]c(=O)sc12)CCc1ccccc1 :: 1.1

For the molecule shown here, CN(CCNC[C@H](O)c1ccc(O)c2[nH]c(=O)sc12)C(=O)CCOCCc1ccccc1 [Example 5, Trifluoroacetate] , give the reported Intrinsic Activity.
1.0

Note, next up: `CCCCN(CCNC[C@H](O)c1ccc(OCc2ccccc2)c2[nH]c(=O)sc12)C(=O)CCOCCc1ccccc1`
0.7

Note, next up: `CCN(CC)CCN(CCNC[C@H](O)c1ccc(O)c2[nH]c(=O)sc12)C(=O)CCOCCc1ccccc1`
1.1
